target desc: Serine/threonine-protein kinase mTOR (Homo sapiens, UniProt P42345)
parameter measured: IC50 (µM)
Output spec: scalar in µM, unitless text.

Quick one: IC50 of "CN(C)CC(=O)N1CCC(c2nc(-c3cnc(N)c(-n4nnc5ccccc54)n3)n(C)n2)CC1" ?
21

====

target desc: Phosphatidylinositol 4,5-bisphosphate 3-kinase catalytic subunit alpha isoform (Homo sapiens)
method description: Inhibition of recombinant human PI3Kalpha using PIP2/ATP as substrate preincubated for 20 mins followed by substrate addition measured after 80 mins by Kinase-Glo plus assay
Lab note: compare IC50 with 30 nM, writing YES if less and NO if equal or more.

> print(dat)
                           structure.string  classification
1  CN(C)CC(=O)N1CCC(n2cc(-c3cnc(N)c(-n4nnc5ccccc54)n3)cn2)CC1             YES
2  CN(C)CC(=O)N1CCC(n2ccc(-c3cnc(N)c(-n4nnc5ccccc54)n3)n2)CC1             YES
3  CN(C)CC(=O)N1CCC(c2cc(-c3cnc(N)c(-n4nnc5ccccc54)n3)n(C)n2)CC1             YES
4  CN(C)CC(=O)N1CCC(c2nc(-c3cnc(N)c(-n4nnc5ccccc54)n3)n(C)n2)CC1             YES
5  CN(C)CC(=O)N1CCC(c2cn(C)c(-c3cnc(N)c(-n4nnc5ccccc54)n3)n2)CC1              NO
6  CN(C)CC(=O)N1CCC(c2nc(-c3cnc(N)c(-n4nnc5ccccc54)n3)nn2C)CC1              NO

Continue with the compound presented below.
Consider the compound "CN(C)CC(=O)N1CCC(n2ncc(-c3cnc(N)c(-n4nnc5ccccc54)n3)n2)CC1" . Is its IC50 strictly less than 30 nM?
YES

====

This section lists pIC50 readings for UniProt P35968.
Sequence (P35968 whole entry): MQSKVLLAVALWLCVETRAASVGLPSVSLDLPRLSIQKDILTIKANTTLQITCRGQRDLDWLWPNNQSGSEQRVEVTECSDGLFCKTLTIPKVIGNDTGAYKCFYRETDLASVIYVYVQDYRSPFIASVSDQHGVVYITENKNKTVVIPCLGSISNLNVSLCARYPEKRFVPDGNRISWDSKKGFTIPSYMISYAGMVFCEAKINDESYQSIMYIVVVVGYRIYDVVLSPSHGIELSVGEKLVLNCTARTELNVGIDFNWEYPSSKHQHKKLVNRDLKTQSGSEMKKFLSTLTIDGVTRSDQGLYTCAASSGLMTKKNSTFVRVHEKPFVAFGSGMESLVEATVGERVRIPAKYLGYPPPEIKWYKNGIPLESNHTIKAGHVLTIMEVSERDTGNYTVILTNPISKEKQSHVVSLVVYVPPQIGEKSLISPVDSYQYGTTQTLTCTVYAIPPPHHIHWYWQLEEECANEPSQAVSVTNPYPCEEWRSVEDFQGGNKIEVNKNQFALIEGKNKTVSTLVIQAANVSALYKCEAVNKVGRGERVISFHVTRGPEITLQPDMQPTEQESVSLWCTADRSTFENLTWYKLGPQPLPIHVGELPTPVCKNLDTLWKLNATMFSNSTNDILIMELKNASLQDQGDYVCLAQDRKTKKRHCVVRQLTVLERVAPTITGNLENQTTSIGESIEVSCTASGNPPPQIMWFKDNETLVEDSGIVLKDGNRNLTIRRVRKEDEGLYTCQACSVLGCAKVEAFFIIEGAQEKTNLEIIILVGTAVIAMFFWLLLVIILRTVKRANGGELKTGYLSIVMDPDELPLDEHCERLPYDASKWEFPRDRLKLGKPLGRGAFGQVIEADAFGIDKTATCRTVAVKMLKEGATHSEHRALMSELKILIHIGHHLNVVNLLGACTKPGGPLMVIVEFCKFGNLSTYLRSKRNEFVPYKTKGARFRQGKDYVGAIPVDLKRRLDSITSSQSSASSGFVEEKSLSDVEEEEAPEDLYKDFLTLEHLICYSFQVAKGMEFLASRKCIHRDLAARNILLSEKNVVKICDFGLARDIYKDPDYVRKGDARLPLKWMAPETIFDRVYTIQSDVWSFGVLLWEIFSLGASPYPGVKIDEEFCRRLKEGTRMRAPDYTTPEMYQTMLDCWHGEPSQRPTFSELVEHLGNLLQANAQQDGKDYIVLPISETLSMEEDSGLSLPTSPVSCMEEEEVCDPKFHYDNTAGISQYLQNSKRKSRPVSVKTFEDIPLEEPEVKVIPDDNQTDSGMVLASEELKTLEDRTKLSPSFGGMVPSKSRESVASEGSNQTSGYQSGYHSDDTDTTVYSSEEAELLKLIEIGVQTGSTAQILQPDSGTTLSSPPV
Interpret pIC50 as the negative base-10 log of the concentration measured in mol/L.

# example entries with known answers
> print(dat)
                           structure.string     target.desc  readout.value
1  CN(C)CC(=O)N1CCC(n2ncc(-c3cnc(N)c(-n4nnc5ccccc54)n3)n2)CC1  UniProt P35968           6.68
2  CN(C)CC(=O)N1CCC(c2cc(-c3cnc(N)c(-n4nnc5ccccc54)n3)n(C)n2)CC1  UniProt P35968           7.05

Query (compound): "CN(C)CC(=O)N1CCC(c2nc(-c3cnc(N)c(-n4nnc5ccccc54)n3)nn2C)CC1" ; field requested: pIC50
5.92

Try this compound next: "CN(C)CC(=O)N1CCC(n2ccc(-c3cnc(N)c(-n4nnc5ccccc54)n3)n2)CC1"
6.77

Try this compound too: "CN(C)CC(=O)N1CCC(c2cn(C)c(-c3cnc(N)c(-n4nnc5ccccc54)n3)n2)CC1"
5.18

====

target desc: Phosphatidylinositol 4,5-bisphosphate 3-kinase catalytic subunit beta isoform (Homo sapiens)
Sequence (P42338 whole entry, canonical isoform): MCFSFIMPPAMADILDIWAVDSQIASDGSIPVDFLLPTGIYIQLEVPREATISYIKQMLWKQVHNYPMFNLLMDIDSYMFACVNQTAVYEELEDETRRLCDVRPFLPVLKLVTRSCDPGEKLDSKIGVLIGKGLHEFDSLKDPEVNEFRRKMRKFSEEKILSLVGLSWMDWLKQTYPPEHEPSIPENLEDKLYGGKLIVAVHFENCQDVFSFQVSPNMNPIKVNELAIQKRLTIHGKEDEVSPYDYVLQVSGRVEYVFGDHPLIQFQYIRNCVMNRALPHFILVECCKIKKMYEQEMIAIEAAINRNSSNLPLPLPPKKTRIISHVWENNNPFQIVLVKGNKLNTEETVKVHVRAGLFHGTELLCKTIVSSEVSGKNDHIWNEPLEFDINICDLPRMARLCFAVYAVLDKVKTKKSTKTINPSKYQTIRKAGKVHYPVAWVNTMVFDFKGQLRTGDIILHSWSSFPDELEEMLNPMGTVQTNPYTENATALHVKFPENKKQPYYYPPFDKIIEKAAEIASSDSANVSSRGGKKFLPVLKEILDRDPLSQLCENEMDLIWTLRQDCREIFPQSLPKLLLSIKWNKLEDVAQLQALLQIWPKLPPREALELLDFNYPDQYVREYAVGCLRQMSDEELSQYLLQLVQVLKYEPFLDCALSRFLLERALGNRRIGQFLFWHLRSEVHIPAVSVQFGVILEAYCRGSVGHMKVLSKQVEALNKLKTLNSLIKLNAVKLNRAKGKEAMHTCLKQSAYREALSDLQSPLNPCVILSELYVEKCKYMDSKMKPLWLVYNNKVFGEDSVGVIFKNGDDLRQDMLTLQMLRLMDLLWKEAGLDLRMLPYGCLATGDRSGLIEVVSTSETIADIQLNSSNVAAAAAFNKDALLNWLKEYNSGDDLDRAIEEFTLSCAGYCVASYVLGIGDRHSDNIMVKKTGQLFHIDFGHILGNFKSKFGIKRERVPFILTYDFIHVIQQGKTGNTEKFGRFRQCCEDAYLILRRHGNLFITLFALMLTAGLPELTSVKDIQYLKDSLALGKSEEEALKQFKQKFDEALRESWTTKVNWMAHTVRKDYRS
method description: Inhibition of recombinant human PI3Kbeta using PIP2/ATP as substrate preincubated for 20 mins followed by substrate addition measured after 80 mins by Kinase-Glo plus assay
IC50 listing for selected compounds.
# number only, unit nM dropped from output

Please report the recorded IC50 for "CN(C)CC(=O)N1CCC(n2ccc(-c3cnc(N)c(-n4nnc5ccccc54)n3)n2)CC1" .
1700

Now the compound "CN(C)CC(=O)N1CCC(n2cc(-c3cnc(N)c(-n4nnc5ccccc54)n3)cn2)CC1"
900

Same question for "CN(C)CC(=O)N1CCC(n2ncc(-c3cnc(N)c(-n4nnc5ccccc54)n3)n2)CC1" please.
650

Repeat with "CN(C)CC(=O)N1CCC(c2nc(-c3cnc(N)c(-n4nnc5ccccc54)n3)n(C)n2)CC1"
1000

Proceed to "CN(C)CC(=O)N1CCC(c2cn(C)c(-c3cnc(N)c(-n4nnc5ccccc54)n3)n2)CC1"
1300

Now consider "CN(C)CC(=O)N1CCC(c2nc(-c3cnc(N)c(-n4nnc5ccccc54)n3)nn2C)CC1" and answer again.
2400

Would you kindly repeat that for "CN(C)CC(=O)N1CCC(c2cc(-c3cnc(N)c(-n4nnc5ccccc54)n3)n(C)n2)CC1" ?
380

====

Item-by-item account of IC50
target desc: Phosphatidylinositol 4,5-bisphosphate 3-kinase catalytic subunit gamma isoform (Homo sapiens)
Sequence (P48736 whole entry, canonical isoform): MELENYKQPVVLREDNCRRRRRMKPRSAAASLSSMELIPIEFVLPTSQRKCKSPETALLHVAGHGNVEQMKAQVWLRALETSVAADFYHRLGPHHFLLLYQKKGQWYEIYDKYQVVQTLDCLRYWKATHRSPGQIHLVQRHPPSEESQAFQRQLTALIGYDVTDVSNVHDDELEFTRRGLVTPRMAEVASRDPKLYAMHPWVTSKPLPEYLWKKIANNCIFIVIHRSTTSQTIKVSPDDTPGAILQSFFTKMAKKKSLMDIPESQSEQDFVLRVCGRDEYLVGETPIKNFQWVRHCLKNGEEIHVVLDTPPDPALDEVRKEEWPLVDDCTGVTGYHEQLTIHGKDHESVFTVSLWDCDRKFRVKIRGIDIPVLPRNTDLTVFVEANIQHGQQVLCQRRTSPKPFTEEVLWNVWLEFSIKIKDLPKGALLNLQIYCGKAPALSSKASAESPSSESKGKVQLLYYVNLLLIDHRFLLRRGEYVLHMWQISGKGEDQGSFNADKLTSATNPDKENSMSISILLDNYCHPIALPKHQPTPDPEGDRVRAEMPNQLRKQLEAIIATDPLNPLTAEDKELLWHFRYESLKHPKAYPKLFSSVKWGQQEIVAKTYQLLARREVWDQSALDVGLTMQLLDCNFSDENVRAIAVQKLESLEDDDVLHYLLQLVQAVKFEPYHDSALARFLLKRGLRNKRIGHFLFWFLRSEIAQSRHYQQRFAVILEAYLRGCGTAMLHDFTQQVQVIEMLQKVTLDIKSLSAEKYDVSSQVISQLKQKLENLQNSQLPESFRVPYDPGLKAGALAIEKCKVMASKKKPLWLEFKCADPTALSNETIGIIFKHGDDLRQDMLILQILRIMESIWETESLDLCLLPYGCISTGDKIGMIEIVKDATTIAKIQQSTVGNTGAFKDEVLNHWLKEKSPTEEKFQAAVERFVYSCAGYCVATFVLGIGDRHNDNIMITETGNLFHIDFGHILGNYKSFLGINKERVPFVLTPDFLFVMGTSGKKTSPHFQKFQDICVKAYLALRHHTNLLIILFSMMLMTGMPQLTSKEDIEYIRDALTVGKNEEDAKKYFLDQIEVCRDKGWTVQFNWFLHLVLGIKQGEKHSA
method description: Inhibition of recombinant human PI3Kgamma using PIP2/ATP as substrate preincubated for 20 mins followed by substrate addition measured after 80 mins by Kinase-Glo plus assay
Give the value, in units of nM, as a plain number.

Fill in: IC50 of "CN(C)CC(=O)N1CCC(n2cc(-c3cnc(N)c(-n4nnc5ccccc54)n3)cn2)CC1" is ___
280

// repeat for "CN(C)CC(=O)N1CCC(c2nc(-c3cnc(N)c(-n4nnc5ccccc54)n3)n(C)n2)CC1" and report
650

====

target desc: Phosphatidylinositol 4,5-bisphosphate 3-kinase catalytic subunit alpha isoform (Homo sapiens, UniProt P42336)
Sequence (P42336 whole entry, canonical isoform): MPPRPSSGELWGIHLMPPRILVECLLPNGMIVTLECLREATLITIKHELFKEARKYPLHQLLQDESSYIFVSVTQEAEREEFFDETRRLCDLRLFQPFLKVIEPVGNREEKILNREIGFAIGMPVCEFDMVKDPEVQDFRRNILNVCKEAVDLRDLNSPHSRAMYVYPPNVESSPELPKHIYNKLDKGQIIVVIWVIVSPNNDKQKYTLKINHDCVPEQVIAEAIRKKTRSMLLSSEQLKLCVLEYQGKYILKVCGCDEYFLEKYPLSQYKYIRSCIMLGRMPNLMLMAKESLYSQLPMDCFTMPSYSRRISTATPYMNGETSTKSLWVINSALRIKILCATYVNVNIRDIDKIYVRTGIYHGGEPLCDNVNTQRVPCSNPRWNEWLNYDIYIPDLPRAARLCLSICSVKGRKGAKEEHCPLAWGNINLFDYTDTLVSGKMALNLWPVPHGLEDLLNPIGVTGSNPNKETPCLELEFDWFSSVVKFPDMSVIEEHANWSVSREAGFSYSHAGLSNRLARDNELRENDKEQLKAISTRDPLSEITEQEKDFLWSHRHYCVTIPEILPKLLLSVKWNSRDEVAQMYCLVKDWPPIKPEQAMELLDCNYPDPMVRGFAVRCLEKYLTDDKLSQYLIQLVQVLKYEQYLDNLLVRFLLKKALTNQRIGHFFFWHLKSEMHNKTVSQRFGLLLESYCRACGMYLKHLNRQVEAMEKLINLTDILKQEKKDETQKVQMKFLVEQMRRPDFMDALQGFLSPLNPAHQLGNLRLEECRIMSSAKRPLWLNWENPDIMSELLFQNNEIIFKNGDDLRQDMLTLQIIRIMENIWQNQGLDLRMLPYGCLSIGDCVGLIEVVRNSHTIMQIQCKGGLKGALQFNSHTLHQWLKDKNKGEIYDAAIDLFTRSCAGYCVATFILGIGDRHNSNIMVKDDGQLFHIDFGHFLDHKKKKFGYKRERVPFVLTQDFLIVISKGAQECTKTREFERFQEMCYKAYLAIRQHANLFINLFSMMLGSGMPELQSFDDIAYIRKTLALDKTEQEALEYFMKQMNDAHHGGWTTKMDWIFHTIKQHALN
method description: Inhibition of PI3Kalpha in human BT474 cells assessed as inhibition of Akt phosphorylation at […] after 2 hrs by ELISA
Assay type: cell-based, BT-474
parameter measured: log10 IC50 (log10 of the value in µM)
Log10 applied to IC50; unit prior to transform: µM.

Quick one: log10 IC50 for "CN(C)CC(=O)N1CCC(c2cc(-c3cnc(N)c(-n4nnc5ccccc54)n3)n(C)n2)CC1" ?
-1.04

// query: "CN(C)CC(=O)N1CCC(c2nc(-c3cnc(N)c(-n4nnc5ccccc54)n3)n(C)n2)CC1"
-0.57

"CN(C)CC(=O)N1CCC(n2ccc(-c3cnc(N)c(-n4nnc5ccccc54)n3)n2)CC1" , same question.
-0.60

What would you report for "CN(C)CC(=O)N1CCC(n2ncc(-c3cnc(N)c(-n4nnc5ccccc54)n3)n2)CC1" ?
-0.85

Same read-out for "CN(C)CC(=O)N1CCC(n2cc(-c3cnc(N)c(-n4nnc5ccccc54)n3)cn2)CC1" ?
-1.24

Please do the same for "CN(C)CC(=O)N1CCC(c2cn(C)c(-c3cnc(N)c(-n4nnc5ccccc54)n3)n2)CC1" as well.
-0.16

And "CN(C)CC(=O)N1CCC(c2nc(-c3cnc(N)c(-n4nnc5ccccc54)n3)nn2C)CC1" ?
0.59
